y means recorded melting point is 200 °C or above; n means it is below 200 °C.

smilesEntry: CC(C)N(C)c1cc2c(cc1C(F)(F)F)NC(=O)CC(c1cccc(-c3ccnc(CO)c3)c1)=N2
label: n
//
smilesEntry: O=C1CC(c2cccc(-c3ccnc(CO)c3)c2)=Nc2cc(Cl)c(Cl)cc2N1
label: y
//
smilesEntry: CC(C)CN(C)c1cc2c(cc1Cl)NC(=O)CC(c1cccc(-c3ccnc(CO)c3)c1)=N2
label: n
//
smilesEntry: Cc1cc2c(cc1C(F)(F)F)NC(=O)CC(c1cccc(-c3cccnc3C)c1)=N2
label: y
//
smilesEntry: Cc1cc2c(cc1C(F)(F)F)NC(=O)CC(c1cccc(-c3ccnc(CC(C)C)c3)c1)=N2
label: y
//
smilesEntry: CCOc1cc2c(cc1C(F)(F)F)NC(=O)CC(c1cccc(-c3ccnc(CO)c3)c1)=N2
label: y
//
smilesEntry: Cc1cc(-c2cccc(C3=Nc4cc(OCC(F)(F)F)c(C(F)(F)F)cc4NC(=O)C3)c2)cc(CO)n1
label: y
//
smilesEntry: CCOc1ccc2c(c1)N=C(c1cccc(-c3ccnc(C)c3)c1)CC(=O)N2
label: n
//
smilesEntry: Cc1cc2c(cc1C(F)(F)F)NC(=O)CC(c1cccc(-c3ccnc(C(F)(F)F)c3)c1)=N2
label: y
//
smilesEntry: CCOc1cc2c(cc1Cl)NC(=O)CC(c1cccc(-c3cccnc3)c1)=N2
label: y

----------
measuredMetric: melting point (°C)

smilesEntry: CCOc1ccc2c(c1)N=C(c1cccc(-c3ccc(C)nc3)c1)CC(=O)N2
number: 173

smilesEntry: Cc1cc(-c2cccc(C3=Nc4cc(CO)c(C(F)(F)F)cc4NC(=O)C3)c2)ccn1
number: 218

smilesEntry: Cc1cc(-c2cccc(C3=Nc4cc(N(C)CC(C)C)c(Cl)cc4NC(=O)C3)c2)cc(C)n1
number: 229

smilesEntry: O=C1CC(c2cccc(-c3cccnc3)c2)=Nc2cc(OCC3CC3)c(C(F)(F)F)cc2N1
number: 197

smilesEntry: O=C1CC(c2cccc(-c3ccnc(N4CCCC4)c3)c2)=Nc2cc(OCC(F)(F)F)c(C(F)(F)F)cc2N1
number: 165

smilesEntry: Cc1cc(-c2cccc(C3=Nc4cc(C)c(C(F)(F)F)cc4NC(=O)C3)c2)c(C)cn1
number: 211

smilesEntry: CCOc1cc2c(cc1C(F)(F)F)NC(=O)CC(c1cccc(-c3ccnc(CC)c3)c1)=N2
number: 244

smilesEntry: CCCc1cc2c(cc1C(F)(F)F)NC(=O)CC(c1cccc(-c3cccnc3)c1)=N2
number: 162

smilesEntry: CC(C)c1cc(-c2cccc(C3=Nc4cc(OCC(F)(F)F)c(C(F)(F)F)cc4NC(=O)C3)c2)ccn1
number: 202

smilesEntry: O=C1CC(c2cccc(-c3ccnc(C4CC4)c3)c2)=Nc2cc(OCC(F)(F)F)c(C(F)(F)F)cc2N1
number: 218

----------
measuredMetric: melting point

compound: Cc1nccc(-c2cccc(C3=Nc4ccc(-n5cccc5)cc4NC(=O)C3)c2)n1 [Example 307]
result: 209 to 212 °C
//
compound: O=C1CC(c2cccc(-c3ccc(C4CC4)nc3)c2)=Nc2cc(OCC(F)(F)F)c(C(F)(F)F)cc2N1 [Example 166]
result: 213 to 214 °C
//
compound: Cc1nccc(-c2cccc(C3=Nc4ccc(C(F)(F)F)cc4NC(=O)C3)c2)n1 [Example 304]
result: 212 to 226 °C
//
compound: COc1cc2c(cc1C(F)(F)F)NC(=O)CC(c1cccc(-c3ccncc3)c1)=N2 [Example 35]
result: 225 °C (dec.)
